Assay: Cmax in rat at 5 mg/kg, po co-administered with 5 mg/kg of CYP3A4 inhibitor ritonavir
Type: ADME, organism-based
Parameters: dose 5 mg/kg, route oral
Details: in vivo
Parameter Cmax: see the listing below.
Value kind: Cmax (ng/mL)

• COC(=O)N[C@H](C(=O)N[C@@H](Cc1ccccc1)C[C@H](O)[C@H](Cc1ccc(-c2cccc(N)c2)cc1)NC(=O)[C@@H](NC(=O)OC)C(C)(C)C)C(C)(C)C = 100
• COC(=O)N[C@H](C(=O)N[C@@H](Cc1ccccc1)C[C@H](O)[C@H](Cc1ccc(-c2ccc(C(C)=O)cc2)cc1)NC(=O)[C@@H](NC(=O)OC)C(C)(C)C)C(C)(C)C = 50
• COC(=O)N[C@H](C(=O)N[C@@H](Cc1ccccc1)C[C@H](O)[C@H](Cc1ccc(-c2ccccn2)cc1)NC(=O)[C@@H](NC(=O)OC)C(C)(C)C)C(C)(C)C = 1550
• COC(=O)N[C@H](C(=O)N[C@@H](Cc1ccccc1)C[C@H](O)[C@H](Cc1ccc(-c2ccc(OC)cc2)cc1)NC(=O)[C@@H](NC(=O)OC)C(C)(C)C)C(C)(C)C = 50
• COC(=O)N[C@H](C(=O)N[C@@H](Cc1ccccc1)C[C@H](O)[C@H](Cc1ccc(-c2ccc(CO)cc2)cc1)NC(=O)[C@@H](NC(=O)OC)C(C)(C)C)C(C)(C)C = 10
• COC(=O)N[C@H](C(=O)N[C@@H](Cc1ccccc1)C[C@H](O)[C@H](Cc1ccc(-c2cccnc2)cc1)NC(=O)[C@@H](NC(=O)OC)C(C)(C)C)C(C)(C)C = 430
• COC(=O)N[C@H](C(=O)N[C@@H](Cc1ccccc1)C[C@H](O)[C@H](Cc1ccc(-c2cnc3ccccc3c2)cc1)NC(=O)[C@@H](NC(=O)OC)C(C)(C)C)C(C)(C)C = 220
